These entries and their values trace back to PubChem BioAssay (Tox21).

Protocol description: qHTS assay to test for compound auto fluorescence at 460 nm (blue) in HEK293 cells (AID 720678)
Settings: blue autofluorescence 405/460 nm; series mostly up to 91.3 µM
Activity calls are given as the source filed them. Calls come from the whole dose curve; as a rule, active = well fitted curve in the direction sought with a large enough effect in the repeat runs; inconclusive = weak or mixed curves; inactive = flat fitted curve, though single readings scatter.
Assay endpoint: fluorescence, % of triamterene

Observe how each entry below is paired with its result.
> print(dat)
                                    compound                  assay.endpoint  reported
 1  Nc1ccc(/C=C/c2ccc(N)cc2S(=O)(=O)O)c(S(=O)(=O)O)c1  fluorescence, % of triamterene  inactive
 2  CC(=O)OC(C(=O)c1ccccc1)c1ccccc1 (centres undefined)  fluorescence, % of triamterene  inactive
 3                  CCOC(=O)CCCCCCCCC(=O)OCC  fluorescence, % of triamterene  inactive
 4                                Cc1ccccc1C  fluorescence, % of triamterene  inactive
 5                    O=S(=O)(O)SSS(=O)(=O)O  fluorescence, % of triamterene  inactive
 6                                 CCC(CO)CO  fluorescence, % of triamterene  inactive
 7                           CC(C)=CC(C)(C)C  fluorescence, % of triamterene  inactive
 8  COc1cc2c3cc1Oc1cc(ccc1O)C[C@@H]1c4c(cc(OC)c(O)c4Oc4ccc(cc4)C[C@@H]3N(C)CC2)CC[N+]1(C)C  fluorescence, % of triamterene  inactive
 9        Cc1ccccc1N1CCN(CCc2nnc3n2CCCC3)CC1  fluorescence, % of triamterene  inactive
10           CN=C(NC#N)NCCSCc1csc(N=C(N)N)n1  fluorescence, % of triamterene  inactive

Please indicate fluorescence, % of triamterene recorded for `F[Si-2](F)(F)(F)(F)F`
inactive

Please indicate fluorescence, % of triamterene recorded for COC(OC)C(C)c1ccccc1 (centres undefined)
inactive
